Reference for the values: patent US11666558B2

- assayText: Ocular tissue concentrations (aqueous humor, vitreous humor, iris, retina, choroid, cornea) after topical ocular, subcutaneous and intravitreal administration
- Format: in vivo, New Zealand White rabbits
- studyConditions: New Zealand White, rabbit, choroid, subcutaneous, 5 mg/kg/dose, Choroid, 4 hr; sodium salt, subcutaneous 5 mg/kg/dose, Group 2; read-out: Choroid Average
readoutKind: concentration at 4 h (ng/g)
Answers are plain numbers, in ng/g.

Bench note: what concentration at 4 h did "COC(=O)N[C@@H](Cc1ccccc1)C(=O)N[C@@H](Cc1ccc(NS(=O)(=O)O)cc1)c1csc(-c2cccs2)n1" show? 15.5

###

- assayText: Ocular tissue concentrations (aqueous humor, vitreous humor, iris, retina, choroid, cornea) after topical ocular, subcutaneous and intravitreal administration
- Format: in vivo, New Zealand White rabbits
- studyConditions: New Zealand White, rabbit, iris, topical, 1.2 mg/eye, topical ocular 1.2 mg/eye (~0.7 mg/kg/dose); 0.5 hr; read-out: Iris tissue Average
Structures can show the parent of a compound that is named as a salt.
readoutKind: concentration at 0.5 hr (ng/g)
Numbers only, in ng/g.

Bench note: what concentration at 0.5 hr did COC(=O)N[C@@H](Cc1ccccc1)C(=O)N[C@@H](Cc1ccc(NS(=O)(=O)O)cc1)c1csc(-c2cccs2)n1 [Compound 1 sodium salt] show? 24.3
